Assay: optical density change of DRC41 E. coli – strain DRC41, OD650, 24 h, E. coli filamentation project, primary screen (AID 1093);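 note: MC1000 strain lacking acrAB efflux and sulA so SOS filamentation is blocked; test concentration not given here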
Details: E. coli DRC41 growth, higher = more signal, called active from +8 up or from −8 down
property: z-score
Number, no unit, nothing else.

Req: Consider the compound shown here: C[C@@H]1NC(=O)C([C@@H](C)OCc2ccccc2)NC(=O)[C@@]23C(=O)N[C@@H](Cc4ccccc4)C2[C@H](C)[C@@]2(C)O[C@H]2C3/C=C/C/C=C\CNC1=O (some centres not stated) What is its recorded z-score?
Resp: -1.07

Req: Consider the compound shown here: `COc1ccc([Si](C)(C)[C@H]2[C@H](CC(=O)N3Cc4ccccc4C[C@H]3CO)O[C@@]3(C(=O)N(C)c4ccccc43)[C@@H]2C)cc1` What is its recorded z-score?
Resp: 0.456

Req: Consider the compound shown here: CCCCC(O)C1C=CC2C(=O)N(c3ccccc3)C(=O)C2N1Nc1ccc([N+](=O)[O-])cc1 (configuration not stated) What is its recorded z-score?
Resp: 0.916

Req: Consider the compound shown here: `O=C1[C@H]2C=C(I)[C@H](C[C@@H]2c2ccccc2)[C@@]12CO2` What is its recorded z-score?
Resp: -0.924

Req: Consider the compound shown here: `CCCC=C(CCC)[C@@H](NC(=O)c1ccc(C(F)(F)F)cc1)c1ccc(C(F)(F)F)cc1` What is its recorded z-score?
Resp: -0.35

Req: Consider the compound shown here: `O=C1c2ccccc2[C@@]2(Cc3ccccc3N(Cc3ccccc3)C2=O)[C@H](c2ccc(CO)cc2)N1Cc1ccccc1Cl` What is its recorded z-score?
Resp: -0.499

Req: Consider the compound shown here: `CO[C@H]1O[C@H](CO)[C@@H](OC(=O)Nc2ccccc2)[C@H](OC(=O)Nc2ccccc2)[C@H]1OC(=O)Nc1ccccc1` What is its recorded z-score?
Resp: 0.758
